Tested on: Pseudomonas aeruginosa
measurement notes: Antibacterial activity against Pseudomonas aeruginosa ATCC 27853 assessed as inhibition of bacterial growth incubated for 18 hrs by microbroth dilution assay
Format: functional
Where a SMILES comes first, the peptide text is derived from it. [ ]: non-standard residue; d: D form.
Assign MIC to each entry below.
Expressed in µM, but write only the number.

-- ask # MIC lookup, item NCCCC[C@H](NC(=O)CNC(=O)[C@H]1CCCN1C(=O)[C@H](CCCCN)NC(=O)[C@H](Cc1c[nH]c2ccccc12)NC(=O)[C@H](CCCCN)NC(=O)[C@@H](N)Cc1c[nH]c2ccccc12)C(=O)N[C@@H](Cc1c[nH]c2ccccc12)C(=O)N[C@@H](CCCCN)C(=O)N[C@@H](Cc1c[nH]c2ccccc12)C(N)=O (H-WKWK[dP]GKWKW-NH2)
-- reply 8

-- ask # MIC lookup, item `NCCCC[C@H](NC(=O)[C@H](Cc1c[nH]c2ccccc12)NC(=O)[C@H](CCCCN)NC(=O)[C@H](Cc1c[nH]c2ccccc12)NC(=O)[C@H](CCCCN)NC(=O)CNC(=O)[C@H]1CCCN1C(=O)[C@H](CCCCN)NC(=O)[C@H](Cc1c[nH]c2ccccc12)NC(=O)[C@H](CCCCN)NC(=O)[C@H](Cc1c[nH]c2ccccc12)NC(=O)[C@@H](N)CCCCN)C(N)=O`
-- reply 32

-- ask # MIC lookup, item `CC[C@H](C)[C@H](NC(=O)[C@H](CCCNC(=N)N)NC(=O)[C@@H](NC(=O)[C@H](CCCNC(=N)N)NC(=O)CNC(=O)[C@H]1CCCN1C(=O)[C@H](CCCNC(=N)N)NC(=O)[C@@H](NC(=O)[C@H](CCCNC(=N)N)NC(=O)[C@@H](NC(=O)[C@@H](N)CCCNC(=N)N)[C@@H](C)CC)[C@@H](C)CC)[C@@H](C)CC)C(=O)N[C@@H](CCCNC(=N)N)C(N)=O`
-- reply 16

* * *

measurement notes: Retention time of the compound by RP-HPLC analysis
Assay type: physicochemical
Where a SMILES comes first, the peptide text is derived from it. [ ]: non-standard residue; d: D form.
Assign Retention_time to each entry below.
Expressed in min, but write only the number.

-- ask # Retention_time lookup, item `NCCCC[C@H](NC(=O)[C@H](Cc1c[nH]c2ccccc12)NC(=O)[C@H](CCCCN)NC(=O)[C@H](Cc1c[nH]c2ccccc12)NC(=O)[C@H](CCCCN)NC(=O)CNC(=O)[C@H]1CCCN1C(=O)[C@H](CCCCN)NC(=O)[C@H](Cc1c[nH]c2ccccc12)NC(=O)[C@H](CCCCN)NC(=O)[C@H](Cc1c[nH]c2ccccc12)NC(=O)[C@@H](N)CCCCN)C(N)=O`
-- reply 12.66

-- ask # Retention_time lookup, item `N=C(N)NCCC[C@@H](NC(=O)CNC(=O)[C@H]1CCCN1C(=O)[C@@H](CCCNC(=N)N)NC(=O)[C@@H](Cc1ccccc1)NC(=O)[C@@H](CCCNC(=N)N)NC(=O)[C@@H](Cc1ccccc1)NC(=O)[C@@H](CCCNC(=N)N)NC(=O)[C@H](N)Cc1ccccc1)C(=O)N[C@H](Cc1ccccc1)C(=O)N[C@H](CCCNC(=N)N)C(=O)N[C@H](Cc1ccccc1)C(=O)N[C@H](CCCNC(=N)N)C(=O)N[C@H](Cc1ccccc1)C(N)=O`
-- reply 14.438

-- ask # Retention_time lookup, item `N=C(N)NCCC[C@H](NC(=O)CNC(=O)[C@H]1CCCN1C(=O)[C@H](CCCNC(=N)N)NC(=O)[C@H](Cc1ccccc1)NC(=O)[C@H](CCCNC(=N)N)NC(=O)[C@@H](N)Cc1ccccc1)C(=O)N[C@@H](Cc1ccccc1)C(=O)N[C@@H](CCCNC(=N)N)C(=O)N[C@@H](Cc1ccccc1)C(N)=O`
-- reply 13.555

-- ask # Retention_time lookup, item NCCCC[C@H](NC(=O)CNC(=O)[C@H]1CCCN1C(=O)[C@H](CCCCN)NC(=O)[C@H](Cc1c[nH]c2ccccc12)NC(=O)[C@H](CCCCN)NC(=O)[C@H](Cc1c[nH]c2ccccc12)NC(=O)[C@H](CCCCN)NC(=O)[C@@H](N)Cc1c[nH]c2ccccc12)C(=O)N[C@@H](Cc1c[nH]c2ccccc12)C(=O)N[C@@H](CCCCN)C(=O)N[C@@H](Cc1c[nH]c2ccccc12)C(=O)N[C@@H](CCCCN)C(=O)N[C@@H](Cc1c[nH]c2ccccc12)C(N)=O (H-WKWKWK[dP]GKWKWKW-NH2)
-- reply 14.49

-- ask # Retention_time lookup, item `N=C(N)NCCC[C@H](NC(=O)[C@H](Cc1ccccc1)NC(=O)[C@H](CCCNC(=N)N)NC(=O)[C@H](Cc1ccccc1)NC(=O)[C@H](CCCNC(=N)N)NC(=O)CNC(=O)[C@H]1CCCN1C(=O)[C@H](CCCNC(=N)N)NC(=O)[C@H](Cc1ccccc1)NC(=O)[C@H](CCCNC(=N)N)NC(=O)[C@H](Cc1ccccc1)NC(=O)[C@@H](N)CCCNC(=N)N)C(N)=O`
-- reply 12.628

-- ask # Retention_time lookup, item `N=C(N)NCCC[C@H](NC(=O)CNC(=O)[C@H]1CCCN1C(=O)[C@H](CCCNC(=N)N)NC(=O)[C@H](Cc1ccccc1)NC(=O)[C@H](CCCNC(=N)N)NC(=O)[C@H](Cc1ccccc1)NC(=O)[C@H](CCCNC(=N)N)NC(=O)[C@@H](N)Cc1ccccc1)C(=O)N[C@@H](Cc1ccccc1)C(=O)N[C@@H](CCCNC(=N)N)C(=O)N[C@@H](Cc1ccccc1)C(=O)N[C@@H](CCCNC(=N)N)C(=O)N[C@@H](Cc1ccccc1)C(N)=O`
-- reply 14.433

-- ask # Retention_time lookup, item `CC[C@H](C)[C@H](N)C(=O)N[C@@H](CCCNC(=N)N)C(=O)N[C@H](C(=O)N[C@@H](CCCNC(=N)N)C(=O)N1CCC[C@@H]1C(=O)NCC(=O)N[C@@H](CCCNC(=N)N)C(=O)N[C@H](C(=O)N[C@@H](CCCNC(=N)N)C(=O)N[C@H](C(N)=O)[C@@H](C)CC)[C@@H](C)CC)[C@@H](C)CC`
-- reply 12.103

* * *

Tested on: Pseudomonas aeruginosa
measurement notes: Antibacterial activity against Pseudomonas aeruginosa ATCC 27853 assessed as inhibition of bacterial growth incubated for 18 hrs by microbroth dilution assay
Type: functional
measured parameter: MIC (µM)
Expressed in µM, but write only the number.

-- ask # MIC lookup, item `CC[C@H](C)[C@H](N)C(=O)N[C@@H](CCCNC(=N)N)C(=O)N[C@H](C(=O)N[C@@H](CCCNC(=N)N)C(=O)N[C@H](C(=O)N[C@@H](CCCNC(=N)N)C(=O)N1CCC[C@@H]1C(=O)NCC(=O)N[C@@H](CCCNC(=N)N)C(=O)N[C@H](C(=O)N[C@@H](CCCNC(=N)N)C(=O)N[C@H](C(=O)N[C@@H](CCCNC(=N)N)C(=O)N[C@H](C(N)=O)[C@@H](C)CC)[C@@H](C)CC)[C@@H](C)CC)[C@@H](C)CC)[C@@H](C)CC`
-- reply 4

* * *

measurement notes: Retention time of the compound by RP-HPLC analysis
Format: physicochemical
Where a SMILES comes first, the peptide text is derived from it. [ ]: non-standard residue; d: D form.
measured parameter: Retention_time (min)
Expressed in min, but write only the number.

-- ask # Retention_time lookup, item `CC[C@H](C)[C@H](N)C(=O)N[C@@H](CCCNC(=N)N)C(=O)N[C@H](C(=O)N[C@@H](CCCNC(=N)N)C(=O)N[C@H](C(=O)N[C@@H](CCCNC(=N)N)C(=O)N1CCC[C@@H]1C(=O)NCC(=O)N[C@@H](CCCNC(=N)N)C(=O)N[C@H](C(=O)N[C@@H](CCCNC(=N)N)C(=O)N[C@H](C(=O)N[C@@H](CCCNC(=N)N)C(=O)N[C@H](C(N)=O)[C@@H](C)CC)[C@@H](C)CC)[C@@H](C)CC)[C@@H](C)CC)[C@@H](C)CC`
-- reply 13.442

-- ask # Retention_time lookup, item NCCCC[C@H](NC(=O)CNC(=O)[C@H]1CCCN1C(=O)[C@H](CCCCN)NC(=O)[C@H](Cc1c[nH]c2ccccc12)NC(=O)[C@H](CCCCN)NC(=O)[C@@H](N)Cc1c[nH]c2ccccc12)C(=O)N[C@@H](Cc1c[nH]c2ccccc12)C(=O)N[C@@H](CCCCN)C(=O)N[C@@H](Cc1c[nH]c2ccccc12)C(N)=O (H-WKWK[dP]GKWKW-NH2)
-- reply 13.817

* * *

Assign MHC10 to each entry below.
measurement notes: Hemolytic activity in Kunming mouse erythrocytes assessed as hemolysis incubated for 1 hr by multimode reader analysis
Type: toxicity, cell-based
setup conditions: erythrocyte
Where a SMILES comes first, the peptide text is derived from it. [ ]: non-standard residue; d: D form.

-- ask # MHC10 lookup, item NCCCC[C@H](NC(=O)CNC(=O)[C@H]1CCCN1C(=O)[C@H](CCCCN)NC(=O)[C@H](Cc1c[nH]c2ccccc12)NC(=O)[C@H](CCCCN)NC(=O)[C@H](Cc1c[nH]c2ccccc12)NC(=O)[C@H](CCCCN)NC(=O)[C@@H](N)Cc1c[nH]c2ccccc12)C(=O)N[C@@H](Cc1c[nH]c2ccccc12)C(=O)N[C@@H](CCCCN)C(=O)N[C@@H](Cc1c[nH]c2ccccc12)C(=O)N[C@@H](CCCCN)C(=O)N[C@@H](Cc1c[nH]c2ccccc12)C(N)=O (H-WKWKWK[dP]GKWKWKW-NH2)
-- reply > 256 µM

-- ask # MHC10 lookup, item `N=C(N)NCCC[C@@H](NC(=O)CNC(=O)[C@H]1CCCN1C(=O)[C@@H](CCCNC(=N)N)NC(=O)[C@@H](Cc1ccccc1)NC(=O)[C@@H](CCCNC(=N)N)NC(=O)[C@@H](Cc1ccccc1)NC(=O)[C@@H](CCCNC(=N)N)NC(=O)[C@H](N)Cc1ccccc1)C(=O)N[C@H](Cc1ccccc1)C(=O)N[C@H](CCCNC(=N)N)C(=O)N[C@H](Cc1ccccc1)C(=O)N[C@H](CCCNC(=N)N)C(=O)N[C@H](Cc1ccccc1)C(N)=O`
-- reply > 256 µM

-- ask # MHC10 lookup, item `N=C(N)NCCC[C@H](NC(=O)CNC(=O)[C@H]1CCCN1C(=O)[C@H](CCCNC(=N)N)NC(=O)[C@H](Cc1ccccc1)NC(=O)[C@H](CCCNC(=N)N)NC(=O)[C@@H](N)Cc1ccccc1)C(=O)N[C@@H](Cc1ccccc1)C(=O)N[C@@H](CCCNC(=N)N)C(=O)N[C@@H](Cc1ccccc1)C(N)=O`
-- reply > 256 µM

-- ask # MHC10 lookup, item `NCCCC[C@H](NC(=O)[C@H](Cc1c[nH]c2ccccc12)NC(=O)[C@H](CCCCN)NC(=O)[C@H](Cc1c[nH]c2ccccc12)NC(=O)[C@H](CCCCN)NC(=O)CNC(=O)[C@H]1CCCN1C(=O)[C@H](CCCCN)NC(=O)[C@H](Cc1c[nH]c2ccccc12)NC(=O)[C@H](CCCCN)NC(=O)[C@H](Cc1c[nH]c2ccccc12)NC(=O)[C@@H](N)CCCCN)C(N)=O`
-- reply > 256 µM

-- ask # MHC10 lookup, item `N=C(N)NCCC[C@H](NC(=O)CNC(=O)[C@H]1CCCN1C(=O)[C@H](CCCNC(=N)N)NC(=O)[C@H](Cc1ccccc1)NC(=O)[C@H](CCCNC(=N)N)NC(=O)[C@H](Cc1ccccc1)NC(=O)[C@H](CCCNC(=N)N)NC(=O)[C@@H](N)Cc1ccccc1)C(=O)N[C@@H](Cc1ccccc1)C(=O)N[C@@H](CCCNC(=N)N)C(=O)N[C@@H](Cc1ccccc1)C(=O)N[C@@H](CCCNC(=N)N)C(=O)N[C@@H](Cc1ccccc1)C(N)=O`
-- reply 512 µM
